Assay: Solubility of photochromic compound in polymerizable compounds
Format: physicochemical
Design: key: 1: No haze is seen when checked under transmission of light, and the sample is completely dissolved.; 2: A very thin haze is seen to the extent that it can be seen under transmission of light.; 3: A thin haze that can be seen under transmission of light is seen.; 4: A haze can be seen even without transmission of light
Settings: 35 µmol/g in radical polymerizable compound composition of Example 21, 65 to 70°C, stirring and ultrasonic irradiation
PROPERTY_LABEL: Dissolution for 15 min

| COMPOUND | RECORDED_RESULT |
| --- | --- |
| CCCOc1ccc(C2(c3ccc(OC)cc3)C=Cc3c4c(c5cc(OC)c(OC)cc5c3O2)-c2ccc(N(C)c3ccccc3)cc2C4(CC)CCC)cc1 (stereo not shown) [Formula (87-1)] | 3 |
| CCCOc1ccc(C2(c3ccc(OC)cc3)C=Cc3c4c(c5cc(OC)c(OC)cc5c3O2)-c2ccc(N(C)c3ccccc3)cc2C4(C)C)cc1 (stereo not shown) [Formula (I), reference compound] | 4 |
| CCCCC1(C(C)CC)c2ccccc2-c2c1c1c(c3cc(OC)c(N4CCOCC4)cc23)OC(c2ccc(OC)cc2)(c2ccc(OC)cc2)C=C1 (stereo not shown) [Formula (20-1)] | 3 |
| CCC1(OCCOCCO[Si](C)(C)CC[Si](O[Si](C)(C)C)(O[Si](C)(C)C)O[Si](C)(C)C)c2ccccc2-c2c1c1c(c3cc(OC)c(N4CCOCC4)cc23)OC(c2ccc(OC)cc2)(c2ccc(OC)cc2)C=C1 (stereo not shown) [Formula (C), reference compound] | 2 |

====

Experiment: Solubility of photochromic compound in polymerizable compounds
Type: physicochemical
Design: key: 1: No haze is seen when checked under transmission of light, and the sample is completely dissolved.; 2: A very thin haze is seen to the extent that it can be seen under transmission of light.; 3: A thin haze that can be seen under transmission of light is seen.; 4: A haze can be seen even without transmission of light
Conditions: 35 µmol/g in radical polymerizable compound composition of Example 21, 65 to 70°C, stirring and ultrasonic irradiation
Description: The photochromic compounds according to Examples and Comparative examples shown in Table 5 were evaluated for solubility in polymerizable compounds. […] Dissolution was checked every 15 minutes up to 1 hour later, the sample was visually checked by transmitting light through the sample, and a degree of dissolution was evaluated according to the following four evaluation criteria. […]

| COMPOUND | Dissolution for 45 min |
| --- | --- |
| CCC1(CC)CCC2(CC1)c1cc(OC)ccc1-c1c2c2c(c3cc(OC)c(Sc4c(C)cccc4C)cc13)OC(c1ccc(OC)cc1)(c1ccc(N3CCOCC3)cc1)C=C2 (centres unmarked) [Formula (J), reference compound] | 3 |
| COc1ccc(C2(c3ccc(OC)cc3)C=Cc3c4c(c5cc(N6CCOCC6)c(OC)cc5c3O2)-c2ccccc2C4(C)C)cc1 [Formula (A), reference compound] | 3 |
| CCCOc1ccc(C2(c3ccc(OC)cc3)C=Cc3c4c(c5cc(OC)c(OC)cc5c3O2)-c2ccc(N(C)c3ccccc3)cc2C4(C)C)cc1 (centres unmarked) [Formula (I), reference compound] | 3 |
| CCCCCC1(CC)c2cc(OC(F)(F)F)ccc2-c2c1c1c(c3cc(OC)ccc23)OC(c2ccc(OC)cc2)(c2ccc(OC)cc2)C=C1 (centres unmarked) | 1 |
| COc1ccc(C2(c3ccc(N4CCOCC4)cc3)C=Cc3c4c(c5cc(Sc6c(C)cccc6C)c(OC)cc5c3O2)-c2ccc(OC)cc2C4(C)C)cc1 (centres unmarked) [Formula (K), reference compound] | 3 |

Hey, just so you know, these numbers are from patent EP4763837A1.
